- method summary: RP, Thermo Scientific Acclaim RSLC 120 C18, 100 × 2.1 mm, 2.2 µm, 30 °C, 0.2 mL/min, estimated dead time 1.1 min; A: 90% water + 10% methanol + 0.01% formic acid + 5 mM ammonium formate, pH 3.61; B: methanol + 0.01% formic acid + 5 mM ammonium formate, pH 3.61; gradient (min/%B) 0/1 1/1 2/39 13/99.9 15/99.9 15.1/1 20.1/1
- conditions used: stereoisomer not certain
Our labelling divides records by LC retention time into ranges: bottom: < 5 min; middle: ≥ 5 min and < 9 min; top: ≥ 9 min

Req: Which LC retention time band matches `NC(N)=NC(N)=NCCc1ccccc1` ?
Resp: bottom

Req: Sort into band: `O=C(O)Cc1cn(-c2ccccc2)nc1-c1ccc(Cl)cc1`
Resp: top

Req: Exam item: assign CN1CCC23c4c5ccc(O)c4OC2C(=O)CCC3(O)C1C5 (centres undefined) to the correct category.
Resp: bottom

---

- method summary: RP, Thermo Scientific Acclaim RSLC 120 C18, 100 × 2.1 mm, 2.2 µm, 30 °C, 0.2 mL/min, estimated dead time 1.1 min; A: 90% water + 10% methanol + 0.01% formic acid + 5 mM ammonium formate, pH 3.61; B: methanol + 0.01% formic acid + 5 mM ammonium formate, pH 3.61; gradient (min/%B) 0/1 1/1 2/39 13/99.9 15/99.9 15.1/1 20.1/1
- conditions used: stereoisomer not certain
attribute measured: LC retention time (min)
Report the figure in min without appending any unit label.

Study these solved cases before continuing.
- molecule: "COc1c(N2CC3CCCNC3C2)c(F)cc2c(=O)c(C(=O)O)cn(C3CC3)c12 (stereo not drawn)"
  attribute measured: "LC retention time"
  test result: 5.17
- molecule: "CC1(C)C(C=CC(=O)OC(C(F)(F)F)C(F)(F)F)C1C(=O)OC(C#N)c1cccc(Oc2ccccc2)c1 (stereo not drawn)"
  attribute measured: "LC retention time"
  test result: 9.17
- molecule: "NCCC(Oc1ccc(C(F)(F)F)cc1)c1ccccc1 (stereo not drawn)"
  attribute measured: "LC retention time"
  test result: 8.58
- molecule: "NC(CO)C(=O)NNCc1ccc(O)c(O)c1O (stereo not drawn) [Benserazide]"
  attribute measured: "LC retention time"
  test result: 1.38
- molecule: "COC(=O)C(C)N(C(=O)c1ccco1)c1c(C)cccc1C (stereo not drawn)"
  attribute measured: "LC retention time"
  test result: 8.99

Req: Could you please provide reported LC retention time for `CN(C)CCc1c[nH]c2cccc(O)c12` ? Thanks!
Resp: 3.29

Req: Quickly give me recorded LC retention time for CC(=O)N(CC(O)CO)c1c(I)c(C(=O)NCC(O)CO)c(I)c(C(=O)NCC(O)CO)c1I (stereo not drawn) [Iohexol]
Resp: 2.98

Req: Specify reported LC retention time for the molecule shown: `O=C(c1cccc2ccccc12)c1cn(CC2CCCCC2)c2ccccc12`
Resp: 13

---

- method summary: RP, Thermo Scientific Acclaim RSLC 120 C18, 100 × 2.1 mm, 2.2 µm, 30 °C, 0.2 mL/min, estimated dead time 1.1 min; A: 90% water + 10% methanol + 0.01% formic acid + 5 mM ammonium formate, pH 3.61; B: methanol + 0.01% formic acid + 5 mM ammonium formate, pH 3.61; gradient (min/%B) 0/1 1/1 2/39 13/99.9 15/99.9 15.1/1 20.1/1
- conditions used: stereoisomer not certain
attribute measured: LC retention time (min)
Value expressed in min; do not type the unit.

- molecule: "CCC(C)Nc1c([N+](=O)[O-])cc(C(C)(C)C)cc1[N+](=O)[O-] (stereo not given) [Butralin]"
  readout unit: "min"
  LC retention time: 13
- molecule: "CCCCCn1c2ccccc2c2cc(C(=O)c3cccc4ccccc34)ccc21 [EG-018]"
  readout unit: "min"
  LC retention time: 14.2
- molecule: "c1ccc(CC2=NCCN2)cc1 [Tolazoline]"
  readout unit: "min"
  LC retention time: 3.28
- molecule: "CCCc1nc(C)c2c(=O)[nH]c(-c3cc(S(=O)(=O)N4CCCCC4)ccc3OCC)nn12 [Vardenafil-Pseudo]"
  readout unit: "min"
  LC retention time: 10.6
- molecule: "CCCCCCCCCCOc1cc2c(=O)c(C(=O)OCC)c[nH]c2cc1OCC [Decoquinate]"
  readout unit: "min"
  LC retention time: 13.4

Req: Read the entry c1ccc2c(CC3=NCCN3)cccc2c1 [Naphazoline] and write its reported LC retention time.
Resp: 4.84

Req: Identify the reported LC retention time for the following entry. O=c1[nH]c2ccccc2n1CCCN1CCN(C(c2ccccc2)c2ccccc2)CC1 [Oxatomide]
Resp: 8.42

Req: Given the molecule Nc1c(Cl)cc([N+](=O)[O-])cc1Cl [Dicloran] , write its reported LC retention time.
Resp: 8.84

Req: Return reported LC retention time. Input molecule: COC(=O)C(NC(=O)c1nn(CC2CCCCC2)c2ccccc12)C(C)C (stereo not given) [MA-CHMINACA]
Resp: 12.4

Req: Tell us which LC retention time value is on record for COc1ccsc1CN(C(=O)CCl)c1c(C)cccc1C [Thenylchlor]
Resp: 10.1

Req: Answer with reported LC retention time of CC(C)(Oc1ccc(C(=O)c2ccc(Cl)cc2)cc1)C(=O)O [Fenofibric acid]
Resp: 9.68

Req: Provide LC retention time value for the following molecule: CCCc1cc(OC)c(CCN)cc1OC [2 C-P]
Resp: 7.46

Req: Annotate the molecule Cc1nnc(-c2ccccc2)c(=O)[nH]1 [Metamitron-desamino] with its measured LC retention time.
Resp: 5.29

Req: Retrieve LC retention time measured for COC(=O)C1=C(C#N)NC(C)=C(C(=O)OC(C)C)C1c1cccc([N+](=O)[O-])c1 (stereo not given) [Nilvadipine] and print it.
Resp: 10.3

Req: Name the recorded LC retention time of the item CCNC(C)C(=O)c1ccccc1 (stereo not given) [Cathinone-Ethyl] in your answer.
Resp: 3.93

Req: Determine its reported LC retention time: CC12CCC3c4ccc(O)cc4CCC3C1CC(O)C2O (stereo not given) [E3 estriol (1-3-5(10)-estratrien-3 16-17-triol)]
Resp: 6.83
